- target under test: NTRK2 (human) (UniProt Q16620)
- Sequence (Q16620 whole entry, looked up): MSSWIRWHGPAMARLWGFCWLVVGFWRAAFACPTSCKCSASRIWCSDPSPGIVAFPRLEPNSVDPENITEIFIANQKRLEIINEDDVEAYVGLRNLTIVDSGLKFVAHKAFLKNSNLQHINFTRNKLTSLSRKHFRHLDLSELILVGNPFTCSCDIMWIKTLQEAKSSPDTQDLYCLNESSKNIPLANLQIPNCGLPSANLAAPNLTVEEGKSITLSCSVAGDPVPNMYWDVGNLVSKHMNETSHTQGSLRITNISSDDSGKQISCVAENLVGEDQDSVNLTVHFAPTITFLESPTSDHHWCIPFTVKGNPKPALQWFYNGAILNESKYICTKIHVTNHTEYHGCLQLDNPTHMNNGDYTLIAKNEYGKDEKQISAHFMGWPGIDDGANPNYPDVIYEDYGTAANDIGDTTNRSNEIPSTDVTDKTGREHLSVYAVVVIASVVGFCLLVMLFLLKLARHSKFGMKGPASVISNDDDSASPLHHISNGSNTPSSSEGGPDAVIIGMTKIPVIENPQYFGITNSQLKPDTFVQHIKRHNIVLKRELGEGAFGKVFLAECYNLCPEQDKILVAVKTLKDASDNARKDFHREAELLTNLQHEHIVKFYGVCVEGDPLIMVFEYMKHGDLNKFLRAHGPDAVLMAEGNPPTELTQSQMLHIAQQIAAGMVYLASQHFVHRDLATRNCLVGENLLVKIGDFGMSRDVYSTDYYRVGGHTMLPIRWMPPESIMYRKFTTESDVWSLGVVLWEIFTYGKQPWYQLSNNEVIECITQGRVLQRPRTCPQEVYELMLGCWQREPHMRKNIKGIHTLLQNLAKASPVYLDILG
- assay protocol: KINOMEscan competition binding
- assay context: compound 10.0 µM
Field: kinase still bound, per cent of control. Provide a value for each of the compounds that follow.
One number for each entry, in %.

Cc1cnc(-c2cnc(NCCNc3ccc(C#N)cn3)nc2-c2ccc(Cl)cc2Cl)[nH]1 : 100
O=C1Nc2cc(Br)ccc2/C1=C1/Nc2ccccc2/C1=N\O : 7.2
Cn1cc(C2=C(c3ccc(Cl)cc3Cl)C(=O)NC2=O)c2ccccc21 : 70

Now take the following compound into account.
# get_value(readout='kinase still bound, per cent of control', item= COc1ccc(CNC(=O)Nc2ncc([N+](=O)[O-])s2)cc1 )
81

###

- target under test: PRKAA1 (human)
- assay protocol: KINOMEscan competition binding
- assay context: compound 10.0 µM
I'd be grateful if you could share measured kinase still bound, per cent of control for these entries.
Answers are plain numbers, in %.

The examples below pair each entry with its known result.
Cc1cnc(-c2cnc(NCCNc3ccc(C#N)cn3)nc2-c2ccc(Cl)cc2Cl)[nH]1 : 82
Cn1cc(C2=C(c3ccc(Cl)cc3Cl)C(=O)NC2=O)c2ccccc21 : 61
COc1ccc(CNC(=O)Nc2ncc([N+](=O)[O-])s2)cc1 : 100

The record that follows has no kinase still bound, per cent of control shown yet.
Request the reported kinase still bound, per cent of control associated with O=C1Nc2cc(Br)ccc2/C1=C1/Nc2ccccc2/C1=N\O
4

###

- Tested on: MET (human), P08581 [M1250T]
- assay protocol: KINOMEscan competition binding
- assay context: compound 10.0 µM
Exercise: for every item that follows, state its recorded kinase still bound, per cent of control.
One number for each entry, in %.

Cn1cc(C2=C(c3ccc(Cl)cc3Cl)C(=O)NC2=O)c2ccccc21 : 73
Cc1cnc(-c2cnc(NCCNc3ccc(C#N)cn3)nc2-c2ccc(Cl)cc2Cl)[nH]1 : 92
COc1ccc(CNC(=O)Nc2ncc([N+](=O)[O-])s2)cc1 : 93

Okay, now this compound:
Tell me the measured kinase still bound, per cent of control of O=C1Nc2cc(Br)ccc2/C1=C1/Nc2ccccc2/C1=N\O , please.
87

###

Please go through the items and note down their kinase still bound, per cent of control.
- Tested on: KIT (human), P10721 [L576P]
- Sequence (P10721 whole entry L576P, looked up): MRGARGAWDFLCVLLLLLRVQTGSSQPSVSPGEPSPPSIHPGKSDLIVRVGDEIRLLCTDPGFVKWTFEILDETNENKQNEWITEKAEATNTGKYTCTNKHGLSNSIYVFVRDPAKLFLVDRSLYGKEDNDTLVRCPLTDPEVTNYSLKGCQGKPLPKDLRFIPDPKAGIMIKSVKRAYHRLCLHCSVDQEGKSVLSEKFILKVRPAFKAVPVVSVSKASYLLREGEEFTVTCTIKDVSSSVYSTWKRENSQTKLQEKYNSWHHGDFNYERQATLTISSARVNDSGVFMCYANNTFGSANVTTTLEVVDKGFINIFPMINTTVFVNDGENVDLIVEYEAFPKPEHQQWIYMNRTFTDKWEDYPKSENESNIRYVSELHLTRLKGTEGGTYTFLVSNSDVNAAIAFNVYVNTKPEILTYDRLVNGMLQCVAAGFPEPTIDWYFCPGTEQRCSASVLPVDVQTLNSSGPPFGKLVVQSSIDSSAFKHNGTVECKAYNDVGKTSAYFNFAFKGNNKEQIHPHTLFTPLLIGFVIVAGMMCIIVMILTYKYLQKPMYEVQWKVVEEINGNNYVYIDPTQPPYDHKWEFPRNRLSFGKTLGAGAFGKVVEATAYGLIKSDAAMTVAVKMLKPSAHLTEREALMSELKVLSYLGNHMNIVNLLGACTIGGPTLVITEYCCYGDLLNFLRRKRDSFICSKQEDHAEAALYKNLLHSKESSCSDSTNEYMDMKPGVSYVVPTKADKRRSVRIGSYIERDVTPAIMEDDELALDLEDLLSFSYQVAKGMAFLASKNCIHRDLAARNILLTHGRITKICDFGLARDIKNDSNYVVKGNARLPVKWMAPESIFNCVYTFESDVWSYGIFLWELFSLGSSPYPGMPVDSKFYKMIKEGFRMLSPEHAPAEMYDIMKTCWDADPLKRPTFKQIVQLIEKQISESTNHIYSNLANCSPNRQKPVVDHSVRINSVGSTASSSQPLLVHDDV
- assay protocol: KINOMEscan competition binding
- assay context: compound 10.0 µM
Numbers only, in %.

COc1ccc(CNC(=O)Nc2ncc([N+](=O)[O-])s2)cc1 : 97
Cn1cc(C2=C(c3ccc(Cl)cc3Cl)C(=O)NC2=O)c2ccccc21 : 72
Cc1cnc(-c2cnc(NCCNc3ccc(C#N)cn3)nc2-c2ccc(Cl)cc2Cl)[nH]1 : 92

# input for lookup
Endpoint output: kinase still bound, per cent of control of O=C1Nc2cc(Br)ccc2/C1=C1/Nc2ccccc2/C1=N\O . Value?
0

###

- target under test: TSSK1B (human) (UniProt Q9BXA7)
- Sequence (Q9BXA7 whole entry, looked up): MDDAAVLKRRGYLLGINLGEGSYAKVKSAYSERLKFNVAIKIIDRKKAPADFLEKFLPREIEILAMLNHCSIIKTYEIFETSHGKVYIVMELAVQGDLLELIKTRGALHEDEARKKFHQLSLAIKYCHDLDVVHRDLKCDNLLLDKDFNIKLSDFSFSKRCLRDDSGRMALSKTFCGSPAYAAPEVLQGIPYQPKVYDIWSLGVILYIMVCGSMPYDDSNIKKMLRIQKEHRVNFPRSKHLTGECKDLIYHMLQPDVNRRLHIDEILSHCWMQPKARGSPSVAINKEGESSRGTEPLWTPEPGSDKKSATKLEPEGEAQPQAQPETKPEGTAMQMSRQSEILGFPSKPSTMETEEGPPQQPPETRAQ
- assay protocol: KINOMEscan competition binding
- assay context: compound 10.0 µM
Would you mind telling me the reported kinase still bound, per cent of control of each entry?
One number for each entry, in %.

Record kinase still bound, per cent of control per entry; entries follow.
1. O=C1Nc2cc(Br)ccc2/C1=C1/Nc2ccccc2/C1=N\O
2. Cn1cc(C2=C(c3ccc(Cl)cc3Cl)C(=O)NC2=O)c2ccccc21
3. COc1ccc(CNC(=O)Nc2ncc([N+](=O)[O-])s2)cc1
4. Cc1cnc(-c2cnc(NCCNc3ccc(C#N)cn3)nc2-c2ccc(Cl)cc2Cl)[nH]1

1: 100; 2: 100; 3: 91; 4: 94

###

Record form. Attribute: kinase still bound, per cent of control. Fill in for each entry.
- target under test: UniProtKB P45983
- Sequence (P45983 whole entry, looked up): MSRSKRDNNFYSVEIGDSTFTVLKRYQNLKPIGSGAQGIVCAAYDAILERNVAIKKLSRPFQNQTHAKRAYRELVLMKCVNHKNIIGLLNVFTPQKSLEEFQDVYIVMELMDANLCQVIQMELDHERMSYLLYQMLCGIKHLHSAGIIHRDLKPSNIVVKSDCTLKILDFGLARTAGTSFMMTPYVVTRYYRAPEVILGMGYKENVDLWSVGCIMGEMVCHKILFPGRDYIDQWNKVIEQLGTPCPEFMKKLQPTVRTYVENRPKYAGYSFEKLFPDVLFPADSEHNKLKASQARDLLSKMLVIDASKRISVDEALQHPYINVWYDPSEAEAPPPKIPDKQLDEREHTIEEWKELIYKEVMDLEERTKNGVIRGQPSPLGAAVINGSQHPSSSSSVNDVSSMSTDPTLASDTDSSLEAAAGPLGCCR
- assay protocol: KINOMEscan competition binding
- assay context: compound 10.0 µM
Please make sure the unit comes right after the number.

Some entries whose results are on file:
Cc1cnc(-c2cnc(NCCNc3ccc(C#N)cn3)nc2-c2ccc(Cl)cc2Cl)[nH]1 : 94%
O=C1Nc2cc(Br)ccc2/C1=C1/Nc2ccccc2/C1=N\O : 23%
COc1ccc(CNC(=O)Nc2ncc([N+](=O)[O-])s2)cc1 : 100%

# next compound below
Checklist item: kinase still bound, per cent of control tested on UniProtKB P45983, entry Cn1cc(C2=C(c3ccc(Cl)cc3Cl)C(=O)NC2=O)c2ccccc21 , value?
77%

###

- target under test: ERBB4 (human)
- assay protocol: KINOMEscan competition binding
- assay context: compound 10.0 µM
Record form. Attribute: kinase still bound, per cent of control. Fill in for each entry.
One number for each entry, in %.

Cc1cnc(-c2cnc(NCCNc3ccc(C#N)cn3)nc2-c2ccc(Cl)cc2Cl)[nH]1 : 100
Cn1cc(C2=C(c3ccc(Cl)cc3Cl)C(=O)NC2=O)c2ccccc21 : 100
COc1ccc(CNC(=O)Nc2ncc([N+](=O)[O-])s2)cc1 : 100

Now look at this one.
Which kinase still bound, per cent of control is listed for O=C1Nc2cc(Br)ccc2/C1=C1/Nc2ccccc2/C1=N\O ?
46

###

- System: BRAF (human), P15056 [V600E]
- Sequence (P15056 whole entry V600E, looked up): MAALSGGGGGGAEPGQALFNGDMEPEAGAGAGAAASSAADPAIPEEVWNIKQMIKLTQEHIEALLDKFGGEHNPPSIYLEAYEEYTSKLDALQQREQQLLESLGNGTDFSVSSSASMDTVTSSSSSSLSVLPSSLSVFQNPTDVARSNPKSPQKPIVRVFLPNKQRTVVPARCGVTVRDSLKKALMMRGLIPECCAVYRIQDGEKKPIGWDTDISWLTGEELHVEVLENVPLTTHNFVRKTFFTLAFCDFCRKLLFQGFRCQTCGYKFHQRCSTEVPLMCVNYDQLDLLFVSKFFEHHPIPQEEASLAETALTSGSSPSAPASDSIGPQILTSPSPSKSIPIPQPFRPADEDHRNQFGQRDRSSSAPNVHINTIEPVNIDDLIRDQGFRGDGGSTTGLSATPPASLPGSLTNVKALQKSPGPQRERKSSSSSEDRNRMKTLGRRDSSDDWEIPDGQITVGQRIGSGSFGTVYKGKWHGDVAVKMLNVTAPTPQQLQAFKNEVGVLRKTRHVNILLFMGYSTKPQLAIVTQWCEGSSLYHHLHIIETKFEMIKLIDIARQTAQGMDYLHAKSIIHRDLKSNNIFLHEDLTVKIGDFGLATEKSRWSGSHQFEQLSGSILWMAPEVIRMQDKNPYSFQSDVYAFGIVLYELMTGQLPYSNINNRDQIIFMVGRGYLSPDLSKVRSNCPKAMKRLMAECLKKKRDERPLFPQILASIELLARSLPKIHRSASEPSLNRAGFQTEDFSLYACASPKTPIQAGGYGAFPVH
- assay protocol: KINOMEscan competition binding
- assay context: compound 10.0 µM
readout name: kinase still bound, per cent of control (%)
One number for each entry, in %.

Some solved cases for reference:
Cn1cc(C2=C(c3ccc(Cl)cc3Cl)C(=O)NC2=O)c2ccccc21 : 78
O=C1Nc2cc(Br)ccc2/C1=C1/Nc2ccccc2/C1=N\O : 84
Cc1cnc(-c2cnc(NCCNc3ccc(C#N)cn3)nc2-c2ccc(Cl)cc2Cl)[nH]1 : 49

Report kinase still bound, per cent of control for COc1ccc(CNC(=O)Nc2ncc([N+](=O)[O-])s2)cc1 please.
49

###

- target under test: MINK1 (human) (UniProt Q8N4C8)
- assay protocol: KINOMEscan competition binding
- assay context: compound 10.0 µM
readout name: kinase still bound, per cent of control (%)
Give bare numbers, in %.

Cc1cnc(-c2cnc(NCCNc3ccc(C#N)cn3)nc2-c2ccc(Cl)cc2Cl)[nH]1 : 75
O=C1Nc2cc(Br)ccc2/C1=C1/Nc2ccccc2/C1=N\O : 6.2
Cn1cc(C2=C(c3ccc(Cl)cc3Cl)C(=O)NC2=O)c2ccccc21 : 60

Report kinase still bound, per cent of control for COc1ccc(CNC(=O)Nc2ncc([N+](=O)[O-])s2)cc1 please.
86

###

- target under test: NLK (human) (UniProt Q9UBE8)
- Sequence (Q9UBE8 whole entry, looked up): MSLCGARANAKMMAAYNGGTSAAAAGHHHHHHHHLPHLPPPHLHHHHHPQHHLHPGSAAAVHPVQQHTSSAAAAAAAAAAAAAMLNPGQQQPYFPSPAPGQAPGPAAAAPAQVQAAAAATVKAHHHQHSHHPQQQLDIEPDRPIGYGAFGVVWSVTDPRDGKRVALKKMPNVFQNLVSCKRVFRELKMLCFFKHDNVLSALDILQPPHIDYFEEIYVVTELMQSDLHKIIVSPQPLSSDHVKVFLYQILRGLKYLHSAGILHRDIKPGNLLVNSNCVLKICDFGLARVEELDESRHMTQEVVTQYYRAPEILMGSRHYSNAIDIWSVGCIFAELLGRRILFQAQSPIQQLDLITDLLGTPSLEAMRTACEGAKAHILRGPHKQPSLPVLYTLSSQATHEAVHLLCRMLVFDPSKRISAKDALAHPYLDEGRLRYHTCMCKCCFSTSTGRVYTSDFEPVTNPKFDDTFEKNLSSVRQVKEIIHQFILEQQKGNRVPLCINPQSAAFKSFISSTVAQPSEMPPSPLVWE
- assay protocol: KINOMEscan competition binding
- assay context: compound 10.0 µM
Please respond with reported kinase still bound, per cent of control for every item in the list.
Numbers only, in %.

Cn1cc(C2=C(c3ccc(Cl)cc3Cl)C(=O)NC2=O)c2ccccc21 : 92
COc1ccc(CNC(=O)Nc2ncc([N+](=O)[O-])s2)cc1 : 72

Need kinase still bound, per cent of control for each of these compounds.
1. O=C1Nc2cc(Br)ccc2/C1=C1/Nc2ccccc2/C1=N\O
2. Cc1cnc(-c2cnc(NCCNc3ccc(C#N)cn3)nc2-c2ccc(Cl)cc2Cl)[nH]1

1. 88
2. 86

###

- Test system: ABL1 (human), P00519 [Y253F]
- assay protocol: KINOMEscan competition binding
- assay context: compound 10.0 µM
readout name: kinase still bound, per cent of control
Remember to follow the number with its unit.

Cc1cnc(-c2cnc(NCCNc3ccc(C#N)cn3)nc2-c2ccc(Cl)cc2Cl)[nH]1 : 100%
COc1ccc(CNC(=O)Nc2ncc([N+](=O)[O-])s2)cc1 : 100%
O=C1Nc2cc(Br)ccc2/C1=C1/Nc2ccccc2/C1=N\O : 4.2%

Attention now shifts to the item below.
For Cn1cc(C2=C(c3ccc(Cl)cc3Cl)C(=O)NC2=O)c2ccccc21 , what is its reported kinase still bound, per cent of control?
100%

###

- target under test: MAP3K13 (human) (UniProt O43283)
- Sequence (O43283 whole entry, looked up): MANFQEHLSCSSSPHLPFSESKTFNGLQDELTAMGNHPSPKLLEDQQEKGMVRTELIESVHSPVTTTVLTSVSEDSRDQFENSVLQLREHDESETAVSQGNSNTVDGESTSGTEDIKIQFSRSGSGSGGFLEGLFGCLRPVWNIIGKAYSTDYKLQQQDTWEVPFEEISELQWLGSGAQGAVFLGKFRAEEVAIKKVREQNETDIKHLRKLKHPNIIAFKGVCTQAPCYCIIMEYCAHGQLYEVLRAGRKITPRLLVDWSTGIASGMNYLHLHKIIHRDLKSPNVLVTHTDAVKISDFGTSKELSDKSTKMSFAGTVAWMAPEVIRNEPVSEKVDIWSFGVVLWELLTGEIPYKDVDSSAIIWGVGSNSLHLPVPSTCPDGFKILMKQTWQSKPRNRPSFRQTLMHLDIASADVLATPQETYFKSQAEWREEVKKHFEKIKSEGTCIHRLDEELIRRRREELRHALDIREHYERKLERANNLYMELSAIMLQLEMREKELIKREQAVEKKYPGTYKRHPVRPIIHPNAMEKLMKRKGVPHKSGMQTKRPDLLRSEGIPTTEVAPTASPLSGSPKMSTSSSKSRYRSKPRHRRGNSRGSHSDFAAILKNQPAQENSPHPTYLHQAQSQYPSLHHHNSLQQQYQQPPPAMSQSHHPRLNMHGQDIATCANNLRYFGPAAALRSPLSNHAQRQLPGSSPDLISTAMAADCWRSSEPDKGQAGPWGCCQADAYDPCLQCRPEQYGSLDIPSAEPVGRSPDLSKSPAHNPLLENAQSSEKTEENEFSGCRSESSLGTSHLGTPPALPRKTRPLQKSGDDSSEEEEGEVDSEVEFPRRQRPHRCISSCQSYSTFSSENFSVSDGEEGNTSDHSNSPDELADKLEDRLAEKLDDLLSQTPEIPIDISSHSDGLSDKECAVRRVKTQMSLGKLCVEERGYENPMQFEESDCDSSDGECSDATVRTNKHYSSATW
- assay protocol: KINOMEscan competition binding
- assay context: compound 10.0 µM
Can you tell me kinase still bound, per cent of control for the items I'm about to list?

Answered cases to consult:
Cn1cc(C2=C(c3ccc(Cl)cc3Cl)C(=O)NC2=O)c2ccccc21 : 84%
COc1ccc(CNC(=O)Nc2ncc([N+](=O)[O-])s2)cc1 : 70%
Cc1cnc(-c2cnc(NCCNc3ccc(C#N)cn3)nc2-c2ccc(Cl)cc2Cl)[nH]1 : 80%

--- query ---
Give the measured kinase still bound, per cent of control of O=C1Nc2cc(Br)ccc2/C1=C1/Nc2ccccc2/C1=N\O .
54%

###

- Tested on: FLT3 (human), P36888 [K663Q]
- assay protocol: KINOMEscan competition binding
- assay context: compound 10.0 µM
For each record, write down the corresponding kinase still bound, per cent of control.
Answers are plain numbers, in %.

Some entries whose results are on file:
Cc1cnc(-c2cnc(NCCNc3ccc(C#N)cn3)nc2-c2ccc(Cl)cc2Cl)[nH]1 : 78
Cn1cc(C2=C(c3ccc(Cl)cc3Cl)C(=O)NC2=O)c2ccccc21 : 62
O=C1Nc2cc(Br)ccc2/C1=C1/Nc2ccccc2/C1=N\O : 0

Then there is this compound:
Using the record for COc1ccc(CNC(=O)Nc2ncc([N+](=O)[O-])s2)cc1 , report its kinase still bound, per cent of control.
70
